- target-or-test-system: placental alkaline phosphatase (human)
- procedure-details: placental alkaline phosphatase activators or inhibitors – biochemical, human PLAP, set 2, selectivity assay for mouse IAP activator project, SAR follow-up (AID 588607)
- condition-summary: purified PLAP, CDP-Star luminescence, 30 min
Measured IC50 (inhibition of PLAP activity), listed per entry for reference.
measured-property: IC50 (inhibition of PLAP activity)

Cc1ccc(S(=O)(=O)N(C)C)cc1NC(=S)NC(C)CCCC(C)C (stereo not given) :: 66.1 µM
CC1CCN(S(=O)(=O)c2ccc(NC(=S)NCCC(c3ccccc3)c3ccccc3)cc2)CC1 :: 31.9 µM
CN(C)S(=O)(=O)c1cccc(NC(=S)NCCc2cccc(Br)c2)c1 :: 73 µM
Cc1ccccc1CNC(=S)Nc1ccc(S(=O)(=O)N(C)C)cc1 :: 71.8 µM
COc1ccc(CCNC(=S)Nc2ccc(S(=O)(=O)N3CCCCC3)cc2)cc1 :: 70.8 µM
CCN(CC)S(=O)(=O)c1ccc(NC(=S)NCC(c2ccccc2)c2ccccc2)cc1 :: 30.1 µM
CN(C)S(=O)(=O)c1cccc(NC(=S)NCC(c2ccccc2)c2ccccc2)c1 :: 35.9 µM
O=S(=O)(c1ccc(NC(=S)NCc2cccc(Cl)c2)cc1)N1CCCCC1 :: 84.9 µM
O=S(=O)(c1ccc(NC(=S)NCC(c2ccccc2)c2ccccc2)cc1)N1CCCC1 :: 19.5 µM
O=S(=O)(c1ccc(NC(=S)NC(c2ccccc2)c2ccccc2)cc1)N1CCCC1 :: 22.1 µM

###

- target-or-test-system: placental alkaline phosphatase (human)
- procedure-details: placental alkaline phosphatase activators or inhibitors – biochemical, human PLAP, set 2, selectivity assay for mouse IAP activator project, SAR follow-up (AID 588607)
- condition-summary: purified PLAP, CDP-Star luminescence, 30 min
measured-property: IC50 (inhibition of PLAP activity)

O=C(NC(=S)Nc1cc(S(=O)(=O)N2CCOCC2)ccc1O)c1ccco1 :: 43.6 µM
O=S(=O)(c1ccc(NC(=S)NCC(c2ccccc2)c2ccccc2)cc1)N1CCCCC1 :: 29.6 µM
O=S(=O)(c1ccc(NC(=S)NC(c2ccccc2)c2ccccc2)cc1)N1CCCCC1 :: 16.6 µM
O=S(=O)(c1ccc(NC(=S)NCc2cccc(F)c2)cc1)N1CCCCC1 :: 78.1 µM
CCOc1cc(CCNC(=S)Nc2ccc(S(=O)(=O)N(C)C)cc2)ccc1OC :: 89.9 µM
